Please go through the items and note down their inhibition at 40 µM.
Tested on: C. violaceum ATCC 31532
Assay: Violacein extraction assay (QS-mediated violacein production)
Type: cell-based
Conditions: Chromobacterium violaceum, ATCC31532, 40 µM, C. violaceum ATCC 31532, mean ± SD of three independent tests; read-out: Inhibition-% of violacein production
Give bare numbers, in %.

compound="Cc1sc(N)nc1-c1c[nH]c2ccccc12 [Compound 2307]" unit_tag=% test_value=76.1
compound="O=c1c(O)c(-c2cccnc2)oc2ccc(Cl)cc12 [Compound 575]" unit_tag=% test_value=60.9

Please go through the list and note inhibition at 40 µM for each compound.
1. CCCCCCCCCC(=O)Oc1c(-c2ccc(OC)cc2)oc2ccccc2c1=O [Compound 2896]
2. COc1cc([C@H]2OC[C@@H]3C(c4ccc(OC5OC(COC6OC(C)C(O)C(O)C6O)C(O)C(O)C5O)c(OC)c4)OC[C@H]23)ccc1O (stereo partly drawn) [Compound 1698]
3. Nc1ccn(C2OC(CO)C3OP(=O)(O)OC32)c(=O)n1 (stereo not drawn) [Compound 144]

**A:**
[83.5, 2.6, 0]
